# protein stability index listing for each entry below
test.summary: protein stability index of a GFP-peptide fusion (yeast GPS) (PSI 1-4); higher = more stable; sorted into four equal gates, so the index is relative within each strain
experimental.parameters: doa10∆
Write the number on its own, no unit after it.

Answered cases to consult:
[[record]]
sequence_content = "DANLLGAEVLIKGSKLS [COR1]"
experimental_readout = "protein stability index"
observed_value = 2.94

[[record]]
sequence_content = "LHYLKKFKHIDDKYGRK [SRP72]"
experimental_readout = "protein stability index"
observed_value = 2.91

[[record]]
sequence_content = "SNEDVMMTGAEQDPYSN [RPB3]"
experimental_readout = "protein stability index"
observed_value = 3.09

[[record]]
sequence_content = "LVSLLDENDSKKNNAAS [YAR002W/NUP60]"
experimental_readout = "protein stability index"
observed_value = 3

[[record]]
sequence_content = "AVSKDPLLTKRKDLRDK [DIS3]"
experimental_readout = "protein stability index"
observed_value = 2.97


In: Which measured protein stability index value corresponds to QLTEFWTELCQREFKEI [NNF1] ?
Out: 2.98

In: Next up: VTLASILTTAVGLVSPS [RPN1]
Out: 1.98

In: Next up: AGGGSNKSSVRPTGGAN [MED6]
Out: 2.93

In: Next up: ESKPFSSDALSKEKANF [SIR4]
Out: 1.96
